IC50 reference
Test system: Neutrophil
Test: Inhibition of fMLF-induced migration of human neutrophil preincubated for 30 mins followed by fMLF stimulation and measured after 60 mins by luminescence based assay
Non-standard residues stand in square brackets, D forms with d. Residues, ends and D or L forms follow the SMILES beside them. *: point of attachment. dCha = N[C@H](CC1CCCCC1)C(=O)O; Bz = O=C(c1ccccc1)*
MEASURED_METRIC: IC50 (nM)

| MOLECULE | UNITS_OF_MEASURE | NUMERIC_READOUT |
| --- | --- | --- |
| COC(=O)[C@H](Cc1ccccc1)NC(=O)[C@H](Cc1c[nH]c2ccccc12)NC(=O)c1ccccc1 | nM | 1600 |
| COC(=O)[C@@H](CC1CCCCC1)NC(=O)[C@H](Cc1c[nH]c2ccccc12)NC(=O)c1ccccc1 (Bz-Trp-[dCha]-OMe) | nM | 620 |
| COC(=O)[C@@H](Cc1ccccc1)NC(=O)[C@H](Cc1c[nH]c2ccccc12)NC(=O)C1CCCCC1 | nM | 3100 |
| COC(=O)[C@@H](Cc1ccccc1)NC(=O)[C@H](Cc1c[nH]c2ccccc12)NC(=O)c1ccccc1 | nM | 480 |

----------
Molecular target: fMet-Leu-Phe receptor (Homo sapiens, UniProt P21462)
Sequence (P21462 whole entry): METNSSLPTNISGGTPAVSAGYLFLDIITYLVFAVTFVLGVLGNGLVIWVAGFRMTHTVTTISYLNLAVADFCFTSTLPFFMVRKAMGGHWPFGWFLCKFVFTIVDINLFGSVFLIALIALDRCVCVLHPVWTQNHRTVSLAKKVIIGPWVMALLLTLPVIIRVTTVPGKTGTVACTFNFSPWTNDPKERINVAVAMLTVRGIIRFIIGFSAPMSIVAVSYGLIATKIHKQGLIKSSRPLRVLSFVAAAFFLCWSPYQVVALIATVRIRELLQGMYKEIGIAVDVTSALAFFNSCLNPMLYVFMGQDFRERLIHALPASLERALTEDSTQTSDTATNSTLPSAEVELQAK
Experiment: Antagonist activity against FPR1 in human neutrophils assessed as calcium mobilization preincubated for 30 mins followed by fMLF addition and measured for 5 sec for 240 sec by fluorometry
pIC50: −log10 of the molar value. Non-standard residues stand in square brackets, D forms with d. Residues, ends and D or L forms follow the SMILES beside them. *: point of attachment. dCha = N[C@H](CC1CCCCC1)C(=O)O; Bz = O=C(c1ccccc1)*

| COMPOUND | TESTED_ON | pIC50 |
| --- | --- | --- |
| COC(=O)[C@@H](CC(C)C)NC(=O)[C@H](Cc1c[nH]c2ccccc12)NC(=O)c1ccccc1 | fMet-Leu-Phe receptor (Homo sapiens, UniProt P21462) | 4.84 |
| COC(=O)[C@@H](Cc1ccccc1)NC(=O)[C@H](Cc1c[nH]c2ccccc12)NC(=O)CC(C)C | fMet-Leu-Phe receptor (Homo sapiens, UniProt P21462) | 4.56 |
| COC(=O)[C@@H](CC1CCCCC1)NC(=O)[C@H](Cc1c[nH]c2ccccc12)NC(=O)c1ccccc1 (Bz-Trp-[dCha]-OMe) | fMet-Leu-Phe receptor (Homo sapiens, UniProt P21462) | 6.92 |
| COC(=O)[C@H](Cc1ccccc1)NC(=O)[C@@H](Cc1c[nH]c2ccccc12)NC(=O)c1ccccc1 | fMet-Leu-Phe receptor (Homo sapiens, UniProt P21462) | 4.96 |
| COC(=O)[C@@H](Cc1ccccc1)NC(=O)[C@H](Cc1c[nH]c2ccccc12)NC(=O)OC(C)(C)C | fMet-Leu-Phe receptor (Homo sapiens, UniProt P21462) | 4.90 |
| COC(=O)[C@@H](Cc1ccccc1)NC(=O)[C@@H](Cc1c[nH]c2ccccc12)NC(=O)c1ccccc1 | fMet-Leu-Phe receptor (Homo sapiens, UniProt P21462) | 4.50 |
| COC(=O)[C@@H](Cc1ccccc1)NC(=O)[C@H](Cc1c[nH]c2ccccc12)NC(=O)c1ccccc1 | fMet-Leu-Phe receptor (Homo sapiens, UniProt P21462) | 6.74 |
| COC(=O)[C@@H](Cc1ccccc1)NC(=O)[C@H](Cc1c[nH]c2ccccc12)NC(=O)C1CCCCC1 | fMet-Leu-Phe receptor (Homo sapiens, UniProt P21462) | 5.48 |
| COC(=O)[C@H](NC(=O)[C@H](Cc1c[nH]c2ccccc12)NC(=O)c1ccccc1)C(C)C | fMet-Leu-Phe receptor (Homo sapiens, UniProt P21462) | 4.60 |
| COC(=O)[C@H](Cc1ccccc1)NC(=O)[C@H](Cc1c[nH]c2ccccc12)NC(=O)c1ccccc1 | fMet-Leu-Phe receptor (Homo sapiens, UniProt P21462) | 5.62 |
